Biological target: human P2X2/3 receptors (Homo sapiens, UniProt P56373+Q9UBL9)
Construct: expressed in transfected cells; host or cells: human astrocytoma 1321N1 (1312N1 [sic])
Sequence (P56373 1-397): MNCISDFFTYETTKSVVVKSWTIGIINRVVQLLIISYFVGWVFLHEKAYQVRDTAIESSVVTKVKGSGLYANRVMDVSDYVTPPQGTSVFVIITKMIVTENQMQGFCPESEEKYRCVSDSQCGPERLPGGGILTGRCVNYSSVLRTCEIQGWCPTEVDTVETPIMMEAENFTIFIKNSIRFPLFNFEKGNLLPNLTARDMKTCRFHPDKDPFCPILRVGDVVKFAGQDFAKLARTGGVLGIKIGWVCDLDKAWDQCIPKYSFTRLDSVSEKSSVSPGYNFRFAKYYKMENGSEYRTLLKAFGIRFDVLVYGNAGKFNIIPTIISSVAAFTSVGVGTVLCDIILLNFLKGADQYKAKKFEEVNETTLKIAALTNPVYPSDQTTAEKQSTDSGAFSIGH
Sequence (Q9UBL9 1-471): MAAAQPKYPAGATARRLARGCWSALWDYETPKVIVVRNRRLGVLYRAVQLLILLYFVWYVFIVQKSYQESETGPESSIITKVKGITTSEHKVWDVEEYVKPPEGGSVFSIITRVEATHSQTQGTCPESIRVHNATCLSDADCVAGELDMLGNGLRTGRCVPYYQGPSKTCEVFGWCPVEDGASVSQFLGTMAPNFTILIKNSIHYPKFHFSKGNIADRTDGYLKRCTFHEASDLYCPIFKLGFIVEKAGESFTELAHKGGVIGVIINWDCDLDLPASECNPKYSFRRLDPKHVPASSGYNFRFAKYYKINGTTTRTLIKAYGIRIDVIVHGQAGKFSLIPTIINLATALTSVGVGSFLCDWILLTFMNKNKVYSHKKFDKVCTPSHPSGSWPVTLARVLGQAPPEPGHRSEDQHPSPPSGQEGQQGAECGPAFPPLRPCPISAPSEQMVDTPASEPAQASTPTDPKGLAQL
Test: Intracellular calcium measurement, antagonist activity at human P2X2/3 receptors (hP2X23 1321N1), Fluo8
Type: cell-based
Settings: column 4); 1321N1 cells, human P2X2/3, Fluo8, agonist ATP at EC50; read-out: 4) hP2X2/3 IC50 [nM] (1321N1)
valueKind: IC50 (nM)
Answer in nM, number only, no unit symbol.

Summary for this molecule, CCc1cc2n(CC(=O)Nc3ccc(F)cn3)c3c(c(=O)n2n1)CN(CC1CCN(C(=O)OC(C)(C)C)CC1)C3=O [Example 89] : IC50 is 6550

# molecule CCc1cc2n(CC(=O)Nc3ccc(F)cn3)c3c(c(=O)n2n1)CN(C(C)(C)COCc1ccccc1)C3=O [Example 120] ; its IC50 = 345

Lab note: measured IC50 of CCc1cc2n(CC(=O)Nc3ccc(F)cn3)c3c(c(=O)n2n1)CN(CCNC(=O)OC(C)(C)C)C3=O [Example 68] was 1660
